Target: Tyrosine-protein phosphatase non-receptor type 1 (Homo sapiens)
Sequence (P18031 whole entry): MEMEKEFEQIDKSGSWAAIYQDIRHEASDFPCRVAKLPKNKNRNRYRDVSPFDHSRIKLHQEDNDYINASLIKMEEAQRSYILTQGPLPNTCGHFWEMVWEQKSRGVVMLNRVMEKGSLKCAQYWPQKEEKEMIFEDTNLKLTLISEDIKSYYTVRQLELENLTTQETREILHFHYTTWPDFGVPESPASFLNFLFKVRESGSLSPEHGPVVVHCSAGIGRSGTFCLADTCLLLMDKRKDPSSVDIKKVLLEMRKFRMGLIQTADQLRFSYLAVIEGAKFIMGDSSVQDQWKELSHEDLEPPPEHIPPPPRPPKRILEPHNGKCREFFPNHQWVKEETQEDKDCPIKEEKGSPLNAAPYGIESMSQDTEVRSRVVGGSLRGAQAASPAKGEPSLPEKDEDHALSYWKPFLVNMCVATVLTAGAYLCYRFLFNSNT
quantity: pIC50
To interpret pIC50, take it as minus log10 of a concentration measured in moles per litre.

Form field - read-out: pIC50; system: Tyrosine-protein phosphatase non-receptor type 1 (Homo sapiens); submitted item: `COc1cc(-c2[nH]ccc2Cl)oc1C1=c2[nH]c3cc2[C@H](C(C)C)[C@H]1CCCCCCCC=3`
4.42

I'm curious: which pIC50 was measured for COC1=CC2=N/C1=C\c1ccc([nH]1)CCCC/C=C/CCCCCCCCCCC1=CC=C2O1 [Cyclic analogue, 8] tested on Tyrosine-protein phosphatase non-receptor type 1 (Homo sapiens)?
4.62

Requested read-out pIC50, target or system Tyrosine-protein phosphatase non-receptor type 1 (Homo sapiens), entry COc1cc(-c2[nH]ccc2Cl)oc1C1=c2[nH]c3cc2[C@@H](C(C)C)[C@@H]1CCCCCCCC=3 [Roseophilin, 2]
5.22

API: value(readout=pIC50, system=Tyrosine-protein phosphatase non-receptor type 1 (Homo sapiens)) for record C=CCCCCc1ccc(/C=C2\N=C(c3ccc[nH]3)C=C2OC)[nH]1 [Acyclic analogue, 13]
4.96

Query the reported pIC50 for Tyrosine-protein phosphatase non-receptor type 1 (Homo sapiens); item: CCc1ccc(/C=C2\N=C(c3ccc[nH]3)C=C2OC)[nH]1 [Acyclic analogue, 14]
5.00

// map C=CCCCCc1ccc(C=C2N=C(c3ccc(C(=O)CCC=C)[nH]3)C=C2OC)[nH]1 [Acyclic analogue, 11] to recorded pIC50 (system: Tyrosine-protein phosphatase non-receptor type 1 (Homo sapiens))
4.49

Give the reported pIC50 for `C/C(=C1\C=CC=N1)c1ccc(-c2[nH]ccc2Cl)o1` (system: Tyrosine-protein phosphatase non-receptor type 1 (Homo sapiens)).
5.22

---

biological target: Dual specificity protein phosphatase 3 (Homo sapiens, UniProt P51452)
Sequence (P51452 whole entry): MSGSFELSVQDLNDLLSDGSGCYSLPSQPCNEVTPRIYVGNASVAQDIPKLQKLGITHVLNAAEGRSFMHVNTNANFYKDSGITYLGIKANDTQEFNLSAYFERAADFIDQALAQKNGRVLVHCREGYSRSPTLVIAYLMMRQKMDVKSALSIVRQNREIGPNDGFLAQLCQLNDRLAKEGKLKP
pIC50: −log10 of the molar value.
Task for the reader: assign each of the following compounds its reported pIC50.

Recorded pIC50 of `CCc1ccc(/C=C2\NC(=O)C=C2OC)[nH]1` , please.
< 4.30

Give its pIC50 value. Item: `C/C(=C1\C=CC=N1)c1ccc(-c2ccc[nH]2)o1`
5.31

Would you mind telling me what pIC50 value was observed for `C=CCCCCc1ccc(C=C2N=C(c3ccc(C(=O)CCC=C)[nH]3)C=C2OC)[nH]1` ?
< 4.30

---

Measured IC50 on Dual specificity protein phosphatase 3 (Homo sapiens) follows.
Record the value in µM, omitting the unit from your answer.

Which IC50 is listed for `C/C(=C1\C=CC=N1)c1ccc(-c2[nH]ccc2Cl)o1` ?
9

I would be grateful if you could share the reported IC50 for `COC1=CC2=N/C1=C\c1ccc([nH]1)CCCC/C=C/CCCCCCCCCCC1=CC=C2O1` .
41

Which measured IC50 value corresponds to `CCc1ccc(/C=C2\N=C(c3ccc[nH]3)C=C2OC)[nH]1` ?
21

I am curious: what IC50 value has been reported for `COc1cc(-c2[nH]ccc2Cl)oc1C1=c2[nH]c3cc2[C@@H](C(C)C)[C@@H]1CCCCCCCC=3` ?
6

Which IC50 value belongs to `C=CCCCCc1ccc(/C=C2\NC(=O)C=C2OC)[nH]1` ?
8

Report IC50 for `COC1=CC(=O)N/C1=C\c1ccc(CCCC/C=C/CCCCC(=O)O)[nH]1` please.
21

Returns the measured IC50 for the input compound. Input: `COc1cc(-c2[nH]ccc2Cl)oc1C1=c2[nH]c3cc2[C@H](C(C)C)[C@H]1CCCCCCCC=3`
32

Data credit: BindingDB's records for doi:10.1002/cbic.200400135
